target: GCase (Homo sapiens, UniProt P04062); construct: endogenous in cells; host or cells: HeLa cells; experiment: activation of GCase in a live cell PFB assay in HELA cells; type: cell-based; conditions: activation of GCase, EC50 ranges
pEC50: −log10 of the molar value.
quantity: pEC50

For orientation, consider the following solved cases.
# molecule, pEC50
data = [
    ("CCc1nn(C2COC2)c2nc(N3CCC4(CN(c5ccnc(C(F)(F)F)c5)C4)C3)cnc12", "4.30 to 5.00"),
    ("O=C1CC2(CCN(c3cnc4cnn(CC(F)F)c4n3)CC2)CCN1c1ccc(C(F)(F)F)cn1", "4.30 to 5.00"),
    ("CCN1C(=O)N(c2ccc(C(F)(F)F)nc2)C(=O)C12CCN(c1cnc3cnn(C4COC4)c3n1)CC2", "4.30 to 5.00"),
    ("CCc1nc(N2CC3(CCN(c4cnc5cnn(CC(F)F)c5n4)C3)C2)cc(C(F)(F)F)n1", "4.30 to 5.00"),
    ("O=C1N(c2cnc(C(F)(F)F)s2)CCC12CCN(c1cnc3cnn(CC(F)F)c3n1)CC2", "> 5.00"),
]

[Q] Identify the measured pEC50 of O=C1CC2(CCN(c3cnc4cnn(CC(F)F)c4n3)CC2)CN1c1ccc(C(F)(F)F)cc1F for GCase (Homo sapiens, UniProt P04062).
[A] > 5.00

[Q] What reported pEC50 corresponds to Cc1nn(C2COC2)c2nc(N3CC4(CCN(c5ccnc(C(F)(F)F)c5)C4)C3)cnc12 on GCase (Homo sapiens, UniProt P04062)?
[A] > 5.00

[Q] Quick check: pEC50 on GCase (Homo sapiens, UniProt P04062), item CCC1N(c2ccnc(C(F)(F)F)n2)C(=O)CC12CCN(c1cnc3cnn(CC(F)F)c3n1)CC2 (centres unmarked) ?
[A] > 5.00

[Q] Return pEC50 measured with GCase (Homo sapiens, UniProt P04062) given this molecule: FC(F)Cn1ncc2ncc(N3CCC4(CC3)CC(Oc3cncc(C(F)(F)F)c3)C4)nc21
[A] > 5.00

[Q] Find pEC50 (GCase (Homo sapiens, UniProt P04062)) for the entry O=C1N(c2cc(C(F)(F)F)ccn2)C(=O)C2(CCN(c3cnc4cnn(CC(F)F)c4n3)CC2)N1Cc1c(F)cccc1F
[A] > 5.00

[Q] Request body: readout pEC50, system GCase (Homo sapiens, UniProt P04062), query Cc1nn(C2COC2)c2nc(N3CCC4(CCN(c5ccc(C(F)(F)F)nc5)C4)CC3)ncc12 . Return the value.
[A] 4.30 to 5.00

[Q] Notebook: pull reported pEC50 for GCase (Homo sapiens, UniProt P04062), entry FC(F)(F)c1cc(N2CC3(CCN(c4cnc5cnn([C@@H]6CCOC6)c5n4)C3)C2)ccn1
[A] < 4.00

[Q] Record O=C1CC2(CCN(c3cnc4cnn(CC(F)F)c4n3)CC2)CN1Cc1nc(C(F)(F)F)cs1 : what is its pEC50 with GCase (Homo sapiens, UniProt P04062)?
[A] > 5.00

[Q] Query for GCase (Homo sapiens, UniProt P04062): what pEC50 does the record show for CC(C)(C)Cn1ncc2ncc(N3CCC4(CN(c5ccnc(C(F)(F)F)c5)C4)C3)nc21 ?
[A] 4.30 to 5.00

[Q] # returns recorded pEC50 (system: GCase (Homo sapiens, UniProt P04062)) for Cc1nc(N2CC3(CCN(c4ncc5c(n4)n(CC(F)F)c(=O)n5C)C3)C2)cc(C(F)(F)F)n1
[A] > 5.00

[Q] Reported pEC50 for GCase (Homo sapiens, UniProt P04062), given Cc1nn(C2COC2)c2nc(N3CCC4(CCN(c5cnc(C(F)(F)F)nc5)C4)C3)ncc12 (centres unmarked) ?
[A] > 5.00

[Q] Identify the measured pEC50 of FC(F)Cn1ncc2ncc(N3CCCC4(CC(Oc5cc(C(F)(F)F)ccn5)C4)C3)nc21 (centres unmarked) for GCase (Homo sapiens, UniProt P04062).
[A] 4.30 to 5.00

---

Molecular target: GCase (Homo sapiens, UniProt P04062)
Construct: endogenous in cells; host or cells: HeLa cells
Sequence (P04062 40-536): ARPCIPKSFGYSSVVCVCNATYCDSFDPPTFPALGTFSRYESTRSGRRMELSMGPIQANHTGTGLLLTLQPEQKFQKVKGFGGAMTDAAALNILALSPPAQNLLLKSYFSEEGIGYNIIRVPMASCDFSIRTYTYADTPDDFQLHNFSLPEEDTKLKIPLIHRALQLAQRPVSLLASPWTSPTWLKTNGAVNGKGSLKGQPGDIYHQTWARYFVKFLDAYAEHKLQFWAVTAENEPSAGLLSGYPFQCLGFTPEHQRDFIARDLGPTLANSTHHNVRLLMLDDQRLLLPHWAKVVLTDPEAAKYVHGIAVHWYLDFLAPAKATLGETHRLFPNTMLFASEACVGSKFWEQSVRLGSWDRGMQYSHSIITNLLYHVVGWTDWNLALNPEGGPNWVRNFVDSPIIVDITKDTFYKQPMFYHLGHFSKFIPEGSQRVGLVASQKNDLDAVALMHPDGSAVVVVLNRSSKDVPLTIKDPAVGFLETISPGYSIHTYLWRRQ
Assay: activation of GCase in a live cell PFB assay in HELA cells
Assay type: cell-based
Settings: activation of GCase, EC50 ranges
Overview of reported EC50 across a group of compounds:

Please review the entries below; each comes with its answer.
# compound, quantity, test-value
data = [
    ("COc1nn(C2COC2)c2nc(N3CCC4(CN(c5ccnc(C(F)(F)F)c5)C4)C3)ncc12 [Cmpd 945]", "EC50", "10 to 50 µM"),
    ("FC(F)Cn1ncc2cnc(N3CCC4(CN(c5ccnc(C(F)(F)F)c5)C4)C3)nc21 [Cmpd 295]", "EC50", "10 to 50 µM"),
    ("O=C1CC2(CCN(c3cnc4cnn(CC(F)F)c4n3)CC2)CN1Cc1ccc(Cl)c(F)c1 [Cmpd 448]", "EC50", "< 10 µM"),
    ("FC(F)Cn1ncc2ncc(NC3CCC4(CC3)CN(c3cccc(C(F)(F)F)n3)C4)nc21 [Compound 130]", "EC50", "10 to 50 µM"),
    ("Cc1nn(CC(F)F)c2nc(N3CCC4(CN(c5ccnc(C(F)(F)F)c5)C4)C3)ncc12 [Cmpd 296]", "EC50", "< 10 µM"),
    ("Cc1nn(CC(F)F)c2nc(N3CCC4(CCN(c5cnc(C(F)(F)F)nc5)C4)C3)cnc12 (stereo not shown) [Cmpd 530]", "EC50", "< 10 µM"),
    ("O=C1N(c2cc(C(F)(F)F)ccn2)CCC12CCN(c1cncc(-n3cccn3)n1)CC2 [Cmpd 241]", "EC50", "10 to 50 µM"),
    ("Cc1nc(N2CCC3(CCN(c4nc5c(cnn5CC(F)F)c(=O)n4CC(C)C)CC3)C2)cc(C(F)(F)F)n1 [Cmpd 1107]", "EC50", "< 10 µM"),
]

[Q] Name the recorded EC50 for FC(F)OCCn1ncc2ncc(N3CCC4(CCN(c5cc(C(F)(F)F)ccn5)C4)CC3)nc21 [Cmpd 751] .
[A] 10 to 50 µM

[Q] I'd like to know its EC50. The compound in question is COc1nn(CC(F)F)c2nc(N3CCC4(CN(c5cc(C)nc(C(F)(F)F)n5)C4)C3)cnc12 [Cmpd 1097]
[A] 10 to 50 µM

[Q] If you can, please state the reported EC50 value of CCn1c(=O)n(CC(F)F)c2nc(N3CCC4(CN(c5cc(C(F)(F)F)nc(C)n5)C4)C3)cnc21 [Cmpd 1074] .
[A] < 10 µM

[Q] What value of EC50 has been reported for the following compound? CC1CC2(CCN(c3cnc4cnn(CC(F)F)c4n3)CC2)CN1c1cc(C(F)(F)F)ccn1 (stereo not shown) [Cmpd 749]
[A] 10 to 50 µM

[Q] Could you share which EC50 value was measured for Cc1nn(CC(F)F)c2nc(N3CC4(CCCN(c5ccc(C(F)F)nc5)C4)C3)cnc12 [Compound 159] ?
[A] > 100 µM

[Q] What value of EC50 has been reported for the following compound? FC(F)Cn1ncc2ncc(NC3CCC4(CC3)CN(c3cccnc3C(F)(F)F)C4)nc21 [Compound 109]
[A] 10 to 50 µM

[Q] Using the record for FC(F)Cn1ncc2ncc(N3CCC4(CC3)CC(COc3ccncc3C(F)(F)F)C4)nc21 [Cmpd 698] , report its EC50.
[A] < 10 µM

[Q] Using the record for Cc1nn(CC(F)F)c2nc(N3CCC4(CC3)CCN(c3cc(C(F)F)ccn3)C4=O)cnc12 [Compound 167] , report its EC50.
[A] 10 to 50 µM

---

molecular target: GCase (Homo sapiens); construct: endogenous in cells; host or cells: HeLa cells; assay: activation of GCase in a live cell PFB assay in HELA cells; type: cell-based; conditions: activation of GCase, EC50 ranges
quantity: EC50

# compound, target-or-test-system, EC50
measured = [
    ("O=C(c1ccc(OC(F)(F)F)cc1)N1CC2(CCN(c3cnc4cnn(CC(F)F)c4n3)C2)C1 [Cmpd 370]", "GCase (Homo sapiens)", "10 to 50 µM"),
    ("Cc1nc(N2CC3(CCN(c4cnc5c(C)nn(C6COC6)c5n4)CC3)CC2=O)cc(C(F)(F)F)n1 [Cmpd 459]", "GCase (Homo sapiens)", "10 to 50 µM"),
]

Consider now this further compound.
[Q] I have this compound here, FC(F)Cn1ncc2ncc(N3CCC4(CCN(c5ccnc(C(F)(F)F)c5)C4)CC3)nc21 [Compound 154] , and I need its recorded EC50.
[A] < 10 µM
